- procedure_summary: Phase 1 pediatric dose-escalation trial: pharmacokinetic studies (exposure, AUC0-∞)
- Assay type: in vivo, human
- assay_setup: human, plasma, oral, 350 mg/m^2, Subject-6 (PNOC014-06); 53.6 kg; BSA 1.6 m^2; dose cohort 350 mg/m^2 by mouth once weekly; dose given 560 mg (10.4 mg/kg)
observable: AUC(0-inf) (ng·h/mL)

compound	observable	unit_name	experimental_result
C[C@@H](NC(=O)c1ncnc(N)c1Cl)c1ncc(C(=O)Nc2cc(C(F)(F)F)c(Cl)cn2)s1 [Compound A]	AUC(0-inf)	ng·h/mL	423

* * *

- procedure_summary: Phase 1 pediatric dose-escalation trial: pharmacokinetic studies (exposure, AUC0-∞)
- Assay type: in vivo, human
- assay_setup: human, plasma, oral, 280 mg/m^2, Subject-2 (PNOC014-02); 28.2 kg; BSA 1.0 m^2; dose cohort 280 mg/m^2 by mouth once weekly; dose given 280 mg (9.9 mg/kg)
observable: AUC(0-inf)

1. C[C@@H](NC(=O)c1ncnc(N)c1Cl)c1ncc(C(=O)Nc2cc(C(F)(F)F)c(Cl)cn2)s1 361 ng·h/mL
